Reference source: patent US20100092526A1

- System: Pseudomonas aeruginosa
- assay_method_text: MIC/MBC of nanoemulsions against gram-negative isolates (CLSI, alamar blue)
- Format: cell-based
- experimental_conditions: Pseudomonas aeruginosa (n = 5); nanoemulsions in the presence of 5 mM EDTA; in µg/mL
Overview of recorded MIC Range for various compounds
property: MIC Range

{"columns": ["compound", "value_reported"],
 "data": [
  ["CO/N=C(\\C(=O)N[C@@H]1C(=O)N2C(C(=O)[O-])=C(C[N+]3(C)CCCC3)CS[C@H]12)c1csc(N)n1 [Cefepime]", "1-8"],
  ["CC(C)(O/N=C(\\C(=O)N[C@@H]1C(=O)N2C(C(=O)[O-])=C(C[n+]3ccccc3)CS[C@H]12)c1csc(N)n1)C(=O)O", "2-4"],
  ["NC[C@H]1O[C@H](O[C@H]2[C@H](O)[C@@H](O[C@H]3O[C@H](CO)[C@@H](O)[C@H](N)[C@H]3O)[C@H](N)C[C@@H]2N)[C@H](N)C[C@@H]1O", "0.25-1"],
  ["C[C@H]1COc2c(N3CCN(C)CC3)c(F)cc3c(=O)c(C(=O)O)cn1c23", "0.25-4"]
]}
